target: Adenosine receptor A1 (Rattus norvegicus)
experimental-details: Reduction of heart rate (A1 response) in isolated rat heart preparation
Format: functional, tissue-based
Reported EC25 is given for each of the following compounds.
Note: unit nM is implicit; provide only the numeric part.

Previously resolved entries follow.
>>> df
                                chem_smiles  reported_measurement
0  OC[C@H]1O[C@@H](n2cnc3c(NCc4cccc5ccccc45)ncnc32)[C@H](O)[C@@H]1O                   400
1  Nc1nc(Nc2ccccc2)nc2c1ncn2[C@@H]1O[C@H](CO)[C@@H](O)[C@H]1O                  7000

State the recorded EC25 for this entry: `OC[C@H]1O[C@@H](n2cnc3c(NCc4ccccc4)ncnc32)[C@H](O)[C@@H]1O`
2300

---

The next entries give measured Ki for Adenosine receptor A1 (Rattus norvegicus, UniProt P25099).
Kindly answer with a numeric value in nM, unit omitted.

>>> df
                                   compound  parameter_measured  reported_measurement
0  OC[C@H]1O[C@@H](n2cnc3c(NCc4cccc5ccccc45)ncnc32)[C@H](O)[C@@H]1O                  Ki                    24
1  OC[C@H]1OC(n2cnc3c(NCCc4cccc5ccccc45)ncnc32)[C@H](O)[C@@H]1O (some centres undefined)                  Ki                  12.3
2  OC[C@H]1OC(n2cnc3c(NC4c5ccccc5-c5ccccc54)ncnc32)[C@H](O)[C@@H]1O (some centres undefined)                  Ki                  6200

Lab note: need Ki for OC[C@H]1OC(n2cnc3c(NCCC4c5ccccc5-c5ccccc54)ncnc32)[C@H](O)[C@@H]1O (some centres undefined) on Adenosine receptor A1 (Rattus norvegicus, UniProt P25099), anyone have it?
320

---

Each entry below carries its measured Ki, system: Adenosine A2 receptor (Rattus norvegicus, UniProt P29276+P30543).
Form entry: value (nM) — number only.

Take a look at these entries with their results.
>>> print(df.to_string())
                                   molecule                                    target  parameter_measured  unit_text  reported_measurement
0  OC[C@H]1OC(n2cnc3c(NCC4c5ccccc5Oc5ccccc54)ncnc32)[C@H](O)[C@@H]1O (some centres undefined)  Adenosine A2 receptor (Rattus norvegicus, UniProt P29276+P30543)                  Ki         nM                    48
1  OC[C@H]1OC(n2cnc3c(NC4c5ccccc5-c5ccccc54)ncnc32)[C@H](O)[C@@H]1O (some centres undefined)  Adenosine A2 receptor (Rattus norvegicus, UniProt P29276+P30543)                  Ki         nM                 42000
2  OC[C@H]1OC(n2cnc3c(NCCC4c5ccccc5-c5ccccc54)ncnc32)[C@H](O)[C@@H]1O (some centres undefined)  Adenosine A2 receptor (Rattus norvegicus, UniProt P29276+P30543)                  Ki         nM                  4300

We next turn to a different molecule, shown below.
Fill in the recorded Ki for this molecule, with Adenosine A2 receptor (Rattus norvegicus, UniProt P29276+P30543) as test system: `OC[C@H]1O[C@@H](n2cnc3c(NCc4cccc5ccccc45)ncnc32)[C@H](O)[C@@H]1O`
9.1

---

Record set of EC25 for target or system Adenosine A2 receptor (Rattus norvegicus) (UniProt P29276+P30543).
Your answer is read as nM, so omit the unit and give the number.

Look over these answered cases.
>>> df
                                   compound  parameter_measured  unit_text  reported_measurement
0  OC[C@H]1OC(n2cnc3c(NCC4c5ccccc5Oc5ccccc54)ncnc32)[C@H](O)[C@@H]1O (stereo not given in full)                EC25         nM                     2
1  OC[C@H]1O[C@@H](n2cnc3c(NCc4cccc5ccccc45)ncnc32)[C@H](O)[C@@H]1O                EC25         nM                   1.2
2  OC[C@H]1OC(n2cnc3c(NCCc4cccc5ccccc45)ncnc32)[C@H](O)[C@@H]1O (stereo not given in full)                EC25         nM                    30
3  OC[C@H]1O[C@@H](n2cnc3c(NCC4c5ccccc5-c5ccccc54)ncnc32)[C@H](O)[C@@H]1O                EC25         nM                     2

// returns reported EC25 for input OC[C@H]1OC(n2cnc3c(NCCC4c5ccccc5-c5ccccc54)ncnc32)[C@H](O)[C@@H]1O (stereo not given in full)
400

---

target: UniProtKB P25099
Sequence (whole entry): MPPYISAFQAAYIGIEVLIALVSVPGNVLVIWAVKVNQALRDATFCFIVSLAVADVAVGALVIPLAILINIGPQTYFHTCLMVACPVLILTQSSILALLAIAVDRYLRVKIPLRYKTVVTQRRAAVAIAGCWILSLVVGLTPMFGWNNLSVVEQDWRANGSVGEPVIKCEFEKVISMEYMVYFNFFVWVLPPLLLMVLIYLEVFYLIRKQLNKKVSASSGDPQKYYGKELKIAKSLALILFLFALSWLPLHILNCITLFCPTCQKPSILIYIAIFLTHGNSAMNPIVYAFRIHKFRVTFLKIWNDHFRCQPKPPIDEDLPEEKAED
experimental-details: Reduction of heart rate (A1 response) in isolated rat heart preparation
Assay type: functional, tissue-based
// NB: equality with 100 nM counts as rule not met; only EC25 strictly below is rule met

In [3]: df
Out[3]:
                                   compound  assigned_category
0  OC[C@H]1OC(n2cnc3c(NCCC4c5ccccc5-c5ccccc54)ncnc32)[C@H](O)[C@@H]1O (some centres undefined)       rule not met

Please determine if `OC[C@H]1O[C@@H](n2cnc3c(NCCc4ccccc4)ncnc32)[C@H](O)[C@@H]1O` is below 100 nM in terms of EC25.
rule not met

Given the entry OC[C@H]1OC(n2cnc3c(NCC4c5ccccc5Oc5ccccc54)ncnc32)[C@H](O)[C@@H]1O (some centres undefined) , would its reported EC25 be below 100 nM?
rule not met

Please indicate whether the reported EC25 of `Nc1nc(Cl)nc2c1ncn2[C@@H]1O[C@H](CO)[C@@H](O)[C@H]1O` is strictly below 100 nM.
rule not met

A record lists `C[C@H](Cc1ccccc1)Nc1ncnc2c1ncn2[C@@H]1O[C@H](CO)[C@@H](O)[C@H]1O` . Is its EC25 below 100 nM?
rule met

# check: EC25 < 100 nM for `OC[C@H]1O[C@@H](n2cnc3c(NCC(c4ccccc4)c4ccccc4)ncnc32)[C@H](O)[C@@H]1O`
rule met

Please determine if `OC[C@H]1O[C@@H](n2cnc3c(NC4CCCC4)ncnc32)[C@H](O)[C@@H]1O` is below 100 nM in terms of EC25.
rule met

Below 100 nM on EC25? Entry OC[C@H]1OC(n2cnc3c(NCCc4cccc5ccccc45)ncnc32)[C@H](O)[C@@H]1O (some centres undefined)
rule not met

---

The following are reported Ki results, target or system Adenosine A2 receptor (Rattus norvegicus, UniProt P29276+P30543).
Could you give me the number in nM? Just the number is fine.

>>> df
                                   molecule  parameter_measured  reported_measurement
0  OC[C@H]1O[C@@H](n2cnc3c(NCCc4ccccc4)ncnc32)[C@H](O)[C@@H]1O                  Ki                   160
1  OC[C@H]1OC(n2cnc3c(NCC4c5ccccc5CCc5ccccc54)ncnc32)[C@H](O)[C@@H]1O (some centres undefined)                  Ki                   390
2  OC[C@H]1OC(n2cnc3c(NCCc4cccc5ccccc45)ncnc32)[C@H](O)[C@@H]1O (some centres undefined)                  Ki                   230

Here is another molecule to look at.
Form entry - test system: Adenosine A2 receptor (Rattus norvegicus, UniProt P29276+P30543); read-out: Ki; molecule: OC[C@H]1OC(n2cnc3c(NCc4c5ccccc5cc5ccccc45)ncnc32)[C@H](O)[C@@H]1O (some centres undefined)
29000

---

System: Adenosine A2 receptor (Rattus norvegicus) (UniProt P29276+P30543) | Read-out: EC25

Check out these entries, answers already filled in.
>>> print(df.to_string())
                                chem_smiles  parameter_measured  reported_measurement
0  Nc1nc(Cl)nc2c1ncn2[C@@H]1O[C@H](CO)[C@@H](O)[C@H]1O                EC25                 13 nM
1  C[C@H](Cc1ccccc1)Nc1ncnc2c1ncn2[C@@H]1O[C@H](CO)[C@@H](O)[C@H]1O                EC25                 10 nM

Form field: EC25 recorded for `OC[C@H]1O[C@@H](n2cnc3c(NCC(c4ccccc4)c4ccccc4)ncnc32)[C@H](O)[C@@H]1O` with Adenosine A2 receptor (Rattus norvegicus) (UniProt P29276+P30543) (enter value)
10 nM

Form field: EC25 recorded for `Nc1nc(Nc2ccccc2)nc2c1ncn2[C@@H]1O[C@H](CO)[C@@H](O)[C@H]1O` with Adenosine A2 receptor (Rattus norvegicus) (UniProt P29276+P30543) (enter value)
3 nM

Request body: readout EC25, system Adenosine A2 receptor (Rattus norvegicus) (UniProt P29276+P30543), query `OC[C@H]1O[C@@H](n2cnc3c(NCCc4ccccc4)ncnc32)[C@H](O)[C@@H]1O` . Return the value.
70 nM

Request - read-out EC25 | tested on Adenosine A2 receptor (Rattus norvegicus) (UniProt P29276+P30543) | molecule `OC[C@H]1O[C@@H](n2cnc3c(NC4CCCC4)ncnc32)[C@H](O)[C@@H]1O`
> 100 nM

Lab note: need EC25 with Adenosine A2 receptor (Rattus norvegicus) (UniProt P29276+P30543) for entry `OC[C@H]1O[C@@H](n2cnc3c(NCc4ccccc4)ncnc32)[C@H](O)[C@@H]1O` , please look it up.
35 nM
